Test system: RPMI-8226
Test: NCI tumour cell line growth inhibition, 48 h
Activity calls are given as the source filed them. Rule as the data show it: active = GI50 up to about 1.1 µM and inactive = higher.
Field: GI50. Provide a value for each of the compounds that follow.

## Task Enter measured GI50, system RPMI-8226, for the compound shown: `O=C1Nc2cc(F)ccc2C1=O`
## Result > 100 µM (inactive)

## Task Jot down GI50 (RPMI-8226) of `COc1ccc(Nc2n[nH]c(NS(=O)(=O)c3cc(C)c(Cl)cc3S)n2)cc1` .
## Result > 100 µM (inactive)

## Task Fill in GI50 for `CCCC(=O)OC[n+]1cccc(-c2c(COC(=O)NC(C)C)c(COC(=O)NC(C)C)c3n2CCC3)c1` tested with RPMI-8226.
## Result 32.3 µM (inactive)

## Task Find the measured GI50 of `NC(=S)N/N=C(/C(=O)Nc1nc2ccc([N+](=O)[O-])cc2s1)C1C(=O)NC(=S)NC1=O` with RPMI-8226 as test system.
## Result > 100 µM (inactive)

## Task Provide the reported GI50 (system: RPMI-8226) for COC(=O)CC(NC(=O)OCc1ccccc1)C(C(=O)OCc1ccccc1)C1(C)OCCO1 (centres undefined)
## Result 22.1 µM (inactive)

## Task Name the recorded GI50 of `CCCCCCc1ccc(CCCCCCCC(=O)O)o1` , assay system RPMI-8226.
## Result 39.6 µM (inactive)

## Task Provide RPMI-8226 GI50 reading for `COc1cc(/C=N/c2ccc(S(N)(=O)=O)cc2)cc(OC)c1` .
## Result 28 µM (inactive)

## Task Report GI50 under test system RPMI-8226 for O=C(NC(Cc1ccc(Br)cc1)C(=O)O)c1ccc(I)cc1 (centres undefined) .
## Result > 68.9 µM (inactive)

## Task Determine reported GI50 for `COP(=O)(OC)C(NC=O)P(=O)(OC)OC` ; test system: RPMI-8226.
## Result > 100 µM (inactive)

## Task Recall the reported GI50 of `CC1=C(C(=O)Nc2cc(=O)n(C)c(=O)n2C)C(c2cccc([N+](=O)[O-])c2)C(C(=O)Nc2cc(=O)n(C)c(=O)n2C)=C(C)N1` when tested on RPMI-8226.
## Result 62.5 µM (inactive)

## Task Provide the reported GI50 (system: RPMI-8226) for `Nc1ccc(S(=O)(=O)c2ccc(/N=[N+](\[O-])c3ccc(S(=O)(=O)c4ccc(N)cc4)cc3)cc2)cc1`
## Result > 100 µM (inactive)

## Task Answer with GI50 of NC(Cc1ccccc1)c1nn[nH]n1 (centres undefined) measured for RPMI-8226.
## Result > 100 µM (inactive)

## Task Lab note: RPMI-8226 assay, enter GI50 for `CC(C)(C)C1CCN(C(=O)c2ccccc2)CC1` here
## Result 46 µM (inactive)

## Task Report value only: GI50, RPMI-8226, C=C(C)C12OC1[C@@]1(C)C(=CC2=O)CCC(O)[C@@H]1C (some centres undefined)
## Result 2.43 µM (inactive)

## Task Determine reported GI50 for Cc1ccc(C2CC(=O)CC(c3ccc(C)cc3)C23C(=O)NC(=O)NC3=O)cc1 (centres undefined) ; test system: RPMI-8226.
## Result > 100 µM (inactive)

## Task System RPMI-8226. Read-out GI50. Item COc1ccc2cc1Oc1ccc(cc1)CC1c3c(cc(OC)c4c3Oc3cc5c(cc3O4)CCNC5C2)CCN1C (centres undefined) . Report value.
## Result 1.63 µM (inactive)

## Task Provide GI50, recorded with RPMI-8226, of `COc1ccc2oc(C(=O)O)c3c2c1CCC3`
## Result > 100 µM (inactive)

## Task Under RPMI-8226, report GI50 for `O=CN1CCN(C(=O)c2ccc(Cl)c(Cl)c2)C1=S`
## Result 2.84 µM (inactive)

## Task Answer with GI50 of `Cc1[nH]c(=O)nc(S)c1C(=O)Nc1cccc2cc3ccccc3cc12` measured for RPMI-8226.
## Result > 100 µM (inactive)

## Task Please tell me the measured GI50 for `O=S(=O)(O)c1cc(S(=O)(=O)O)c2cc(/N=N/c3ccc(/N=N/c4ccc(/C=C/c5ccc(/N=[N+](/[O-])c6ccc(/C=C/c7ccc(/N=N/c8ccc(/N=N/c9ccc%10cc(S(=O)(=O)O)cc(S(=O)(=O)O)c%10c9)cc8)cc7S(=O)(=O)O)c(S(=O)(=O)O)c6)cc5S(=O)(=O)O)c(S(=O)(=O)O)c4)cc3)ccc2c1` ; system: RPMI-8226.
## Result 46.5 µM (inactive)

## Task Fill in: GI50 on RPMI-8226, entry CSc1ncnc2c1ncn2C1CC(Oc2ccc(C)cc2)C(COc2ccc(C)cc2)O1 (centres undefined)
## Result 9.66 µM (inactive)

## Task Specify the recorded GI50 for CC12CCC3(OCCO3)C(OC(=O)c3ccccc3)=C1CCC21OCCO1 (centres undefined) , system: RPMI-8226.
## Result 71.3 µM (inactive)

## Task Check RPMI-8226 data and give GI50 for `Cc1ccc2oc(=O)cc(CC(=O)O)c2c1` .
## Result > 100 µM (inactive)

## Task Specify the recorded GI50 for `Nc1nc2c(c(-c3ccc(F)cc3)n1)COC/C2=C\c1ccc(F)cc1` , system: RPMI-8226.
## Result 71.6 µM (inactive)
